Where do these numbers come from? They come from patent US8435978B2.

# reported inhibition at 10 µM; entries follow
study.target: human B1R receptor (Homo sapiens)
Construct: host or cells: CHO K1 cells (Chinese hamster ovary), stably transfected
Sequence (P46663 whole entry): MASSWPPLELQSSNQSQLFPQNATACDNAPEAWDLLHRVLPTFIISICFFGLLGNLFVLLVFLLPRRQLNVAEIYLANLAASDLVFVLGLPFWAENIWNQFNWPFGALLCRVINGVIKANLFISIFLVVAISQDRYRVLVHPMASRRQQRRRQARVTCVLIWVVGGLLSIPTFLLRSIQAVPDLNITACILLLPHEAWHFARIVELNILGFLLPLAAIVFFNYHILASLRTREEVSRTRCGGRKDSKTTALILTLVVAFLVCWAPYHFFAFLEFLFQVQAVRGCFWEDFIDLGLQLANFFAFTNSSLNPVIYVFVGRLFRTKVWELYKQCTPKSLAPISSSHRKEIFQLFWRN
measurement.protocol: Functional study on the bradykinin receptor 1 (B1R), FLIPR Ca2+ assay, hB1R cells
Format: cell-based
test.context: CHO-K1, test substance 10 μM, agonist Lys-Des-Arg9-bradykinin 0.5 nM, % inhibition compared with the maximum achievable inhibition, read-out: B1R Antagonism, human [10 μM] % Inhibition
Lab book: enter the figure in %, no units written.

>>> number("Cc1cc(C)c(S(=O)(=O)N2CCCCC2COCC(=O)N2CCCN(Cc3ccccc3)CC2)c(C)c1 (centres unmarked) [Example 31]")
83.8

Input: For the compound shown here, O=C(COCC1Cc2ccccc2N1S(=O)(=O)c1ccc(Cl)c(Cl)c1)NCC1CCCN(Cc2ccccc2)C1 (centres unmarked) [Example 16] , give the reported inhibition at 10 µM.
Output: 95.9

Input: Repeat with O=C(COCC1Cc2ccccc2CN1S(=O)(=O)c1ccc(Cl)c(Cl)c1)N1CCC(N2CCCC2)CC1 (centres unmarked) [Example 38]
Output: 75

Input: Repeat with O=C(COCC1CCCN1S(=O)(=O)c1c(Cl)cccc1Cl)N1CCN(Cc2ccc(Br)cc2)CC1 (centres unmarked) [Example 358]
Output: 101

Input: Repeat with O=C(COCC1CCCN1S(=O)(=O)c1c(Cl)cc(Cl)cc1Cl)NCCN1CCCC1 (centres unmarked) [Example 339]
Output: 77.5
